- System: Vero E6 infected with SARS-CoV-2
- Protocol description: inhibition of SARS-CoV-2 cytopathic effect; higher = more antiviral protection, active = above 15
- Condition info: 10000 nM; 48 h
Value kind: inhibition of SARS-CoV-2 cytopathic effect (%)
Numeric answer only, unit % assumed.

As a guide, the following entries are already answered.
>>> val("Oc1ccc(OC2CCCCO2)cc1 (centres undefined) [deoxyarbutin]")
-0.71
>>> val("COC(=O)[C@@H]1CC2=CC(=O)CC[C@]2(C)[C@@]23O[C@@H]2C[C@@]2(C)[C@@H](CC[C@@]24CCC(=O)O4)[C@H]13 [eplerenone]")
0.25
>>> val("N#Cc1ccc2[nH]cc(CCCCN3CCN(c4ccc5oc(C(N)=O)cc5c4)CC3)c2c1 [vilazodone]")
-3.06
>>> val("O=C(O)CC/C=C\\C[C@@H]1CO[C@H](c2ccccc2Cl)O[C@@H]1c1ccccc1O (racemic)")
-2.08
>>> val("CCCCCCOC(=O)NC(=N)c1ccc(NCc2nc3cc(C(=O)N(CCC(=O)OCC)c4ccccn4)ccc3n2C)cc1 [dabigatran-etexilate]")
-2.8
>>> val("Cc1ccc(=O)n(-c2ccccc2)c1 [pirfenidone]")
5.58
>>> val("Cc1ncc(C)n2nc([C@@H]3C[C@H]3c3nc4c5cccnc5ccn4c3C)nc12")
4.45
>>> val("O=C1Nc2ccc(Cl)cc2[C@@](C#CC2CC2)(C(F)(F)F)O1 [efavirenz]")
-1.92

Consider the additional molecule presented here.
Entry Cc1cc(Nc2nc(N[C@@H](C)c3ncc(F)cn3)ncc2Cl)[nH]n1 — recorded inhibition of SARS-CoV-2 cytopathic effect = 0.25
